Source of measurements: patent US9642846B2

# Tested on: NIH/3T3 Fibroblast cell
# protocol-details: MTT toxicity assay
# Assay type: cell-based
# experimental-context: MTT after 24 hours and 48 hours
attribute-measured: toxicity (MTT) (µg/mL)
Form entry: value (µg/mL) — number only.

1) COc1cc2cc3c4cc5c(cc4cc[n+]3c(C)c2cc1OC)OCO5 = 80
2) CCc1c2cc3c(cc2cc2c4cc5c(cc4cc[n+]12)OCO5)OCO3 = 100
3) Cc1c2cc3c(cc2cc2c4cc5c(cc4cc[n+]12)OCO5)OCO3 = 40

Next, consider the following molecule.
Which toxicity (MTT) value belongs to COc1ccc2cc3c4cc5c(cc4cc[n+]3cc2c1OC)OCO5 ?
96

###

# System: C. parapsilosis
# protocol-details: MIC80 broth microdilution
# Assay type: cell-based, Candida parapsilosis
# experimental-context: Lodderomyces parapsilosis, 80% growth inhibition, RPMI-1640
attribute-measured: MIC80

Here's what some known entries look like.
1. Cc1c2cc3c(cc2cc2c4cc5c(cc4cc[n+]12)OCO5)OCO3 = 1 µg/mL
2. COc1ccc2cc3c4cc5c(cc4cc[n+]3cc2c1OC)OCO5 = 2 µg/mL
3. OC(Cn1cncn1)(Cn1cncn1)c1ccc(F)cc1F [Fluconazole, reference compound] = 1 µg/mL
4. COc1cc2cc3c4cc5c(cc4cc[n+]3c(C)c2cc1OC)OCO5 = 8 µg/mL
5. CCc1c2cc3c(cc2cc2c4cc5c(cc4cc[n+]12)OCO5)OCO3 = 2 µg/mL

API: the following record is the query input.
So what's the measured MIC80 for this one? COc1cc2cc[n+]3c(C)c4cc5c(cc4cc3c2cc1OC)OCO5
8 µg/mL
